Reference source: the RNAGym collection of RNA variant scans (doi:10.7554/elife.80360)

B1: HDV Ribozyme (parent)
chain: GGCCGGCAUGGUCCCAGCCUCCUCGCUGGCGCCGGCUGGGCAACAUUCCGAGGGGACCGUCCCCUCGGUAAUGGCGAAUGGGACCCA

Variants of: B1
protocol_details: self-cleavage, relative activity (ratio to wild type); higher = more cleavage; co-transcriptional
# self-cleavage values compiled below
parameter: self-cleavage

{"seq": "GGCCAGCAUGGUCCCAGCCUCCUCGCUGGCGCCGGCUGGGCAACAUUCCGAGGGGACCGUCCCCUCGGUAAUGGCGAAUGGGACGCA [G5A C85G]", "assay_value": 0.147}
{"seq": "GGCCGGCAUGGUCCCAGCCUCCUCGCUGGCGCCGGCUGGGCAACAUUCCGAGGGGACCGUCCCCACGGUAAUGGCGAAUGGAACCCA [U65A G82A]", "assay_value": 0.281}
{"seq": "GGCCGGCAUGGUGCCAGCCUCCUCGCUGGCGCCGGCUGGGCAACAUUCCGAGGGGACCGUCCCCUCGAUAAUGGCGAAUGGGACCCA [C13G G68A]", "assay_value": 0}
{"seq": "GGCCGGCAUGGUCCCAGCCUCCUCGCUGGCGCCGGCUGGUCAACAUUCCGAGGGGACCGCCCCCUCGGUAAUGGCGAAUGGGACCCA [G40U U60C]", "assay_value": 0.723}
{"seq": "GGCCGGCAUGGUCCCAGCCUCCUCGCUGGCGCCGGCUGGGCAACAUUCCGAGGGGACCGUCCCCUCAGUAAUGGCGAAUGGGGCCCA [G67A A83G]", "assay_value": 0.39}
{"seq": "GGCCGGCAUGGUCCCACCCUCCUCGCUGGCGCCGGCUGGGCAGCAUUCCGAGGGGACCGUCCCCUCGGUAAUGGCGAAUGGGACCCA [G17C A43G]", "assay_value": 0}
{"seq": "GGCCGGCAUGGUCCCAGCCUCCUCGCUGGCGCCGGCUGGGUAACAUUCCGAGGGGGCCGUCCCCUCGGUAAUGGCGAAUGGGACCCA [C41U A56G]", "assay_value": 0.7}
{"seq": "GGCCGGCAUGGUCCCAGCCUCCUCGCUGGCGCCGGCUGGGCAACAUUCCGAGGGGGUCGUCCCCUCGGUAAUGGCGAAUGGGACCCA [A56G C57U]", "assay_value": 0.985}
{"seq": "GGCCGGCAUGGUCCCAGCCUCCUCGCUGGCGCCGGCUGGGCCACAUUCCGAGGGGACCGUCCCCUCGCUAAUGGCGAAUGGGACCCA [A42C G68C]", "assay_value": 0.198}
{"seq": "GGCCGCCAUGGUCCCAGCCUCCUCGCUGGCGCCCGCUGGGCAACAUUCCGAGGGGACCGUCCCCUCGGUAAUGGCGAAUGGGACCCA [G6C G34C]", "assay_value": 0.115}
